Provide the recorded inhibition for the entries that follow.
# Tested on: RmlC (dTDP-4-dehydrorhamnose 3,5-epimerase) and RmlD (dTDP-4-dehydrorhamnose reductase), coupled enzyme assay
# Measurement notes: RmlC and RmlD coupled enzyme inhibitors, primary screen, biochemical, 384-well, compound mixtures, retest (AID 1532)
# Cond: 384-well mixture HTS, at 5.5 µM, active compounds read high
Out of some 110,000 compounds screened, about 420 (0.38%) were called active. This excerpt belongs to a sample that is enriched for actives.
Numbers only; they are read as %.

Prompt line: For CCN1C(=O)N[C@@H](c2ccccc2)C(C(=O)OC)=C1C , write its inhibition.
Response line: -30

Prompt line: # return recorded inhibition for entry Fc1ccc2nc(Nc3nc4c(s3)CCCC4)sc2c1
Response line: 35.3

Prompt line: Provide only the value of recorded inhibition for NC(N)=NCCCc1cn(CC(=O)N2CCNCC2)nn1
Response line: -8.74

Prompt line: Given the molecule CNC(=O)c1[nH]cnc1C(=O)N[C@@H](CC(C)C)C(=O)OC(C)(C)C , write its reported inhibition.
Response line: -13.2

Prompt line: Give reported inhibition value for NC(=O)c1sc2nc3c(c(-c4ccccc4)c2c1N)CCC3
Response line: -14.4

Prompt line: For the molecule COc1ccc(-c2cc3ccc(OCc4nn[nH]n4)cc3oc2=O)cc1 , give its measured inhibition value.
Response line: 94.2

Prompt line: Supply inhibition value. Item: CCO[C@@H]1OC(C(=O)N2CCOCC2)=C[C@H](C)[C@H]1CCCO
Response line: -9.82

Prompt line: Please look at this molecule and report its inhibition: CC(=O)Nc1ccc(NC(=O)c2sc3nc4c(c(-c5ccc(C)cc5)c3c2N)CCC4)cc1
Response line: 47.9

Prompt line: Name the recorded inhibition of the molecule listed here: Fc1ccc2nc(N3CCCCC3)sc2c1
Response line: -11.1

Prompt line: Quick one: give measured inhibition for O=C(NC1CC1)C1=C[C@H](c2c[nH]c3ccccc23)C[C@H](OCc2ccc(CO)cc2)O1
Response line: 7.9

Prompt line: Find the measured inhibition of CCOC(=O)/C=C/c1ccc(C(F)(F)F)cc1S(=O)(=O)NC(C)(C)C and report it.
Response line: 32.4

Prompt line: Give inhibition for COC(C[C@@H]1O[C@@H]1C(=O)[C@H](C)OCc1ccccc1)OC
Response line: -11.7

Prompt line: Given NC(=O)CC[C@@H]1NC(=O)[C@H](CO)NC(=O)c2cc([N+](=O)[O-])cc(I)c2NCC[C@@H](C(N)=O)NC1=O , respond with its inhibition.
Response line: -1.33

Prompt line: Answer with the recorded inhibition of COc1ccc(C2/C=C\CN(CC(C)C)CC(=O)N2Cc2ccc(F)cc2)cc1 (stereo unspecified) only.
Response line: -6.08

Prompt line: Tell me inhibition reported for O=c1c(-c2ccccc2)coc2cc(O)ccc12
Response line: 44.3

Prompt line: Identify measured inhibition associated with COC(C[C@@H](O)C[C@H](O)[C@H](C)OCc1ccccc1)OC
Response line: 8.66

* * *

# System: RmlC (dTDP-4-dehydrorhamnose 3,5-epimerase) and RmlD (dTDP-4-dehydrorhamnose reductase), coupled enzyme assay
# Measurement notes: RmlC and RmlD coupled enzyme inhibitors, primary screen, biochemical, 384-well, compound mixtures, retest (AID 1532)
# Cond: 384-well mixture HTS, at 5.5 µM, active compounds read high
Screen size: about 110,000 compounds; about 420 (0.38%) were called active. The entries come from a sample that favours actives as a whole.
Measurement type: inhibition (%)
Expressed in %, but write only the number.

Prompt line: Fill in reported inhibition for this entry: COc1ccc(CN2CC[C@H]3C=CC[C@@H](C(=O)N4CCOCC4)[C@H]3C2=O)cc1OC
Response line: 7.97

Prompt line: State its inhibition: Cc1cn(C)c(=O)n(C)c1=O
Response line: -2.57

Prompt line: Tell us which inhibition value is on record for CC(C)(C)CN1C(=O)C(=O)NC[C@H]1Cc1cccc2ccccc12
Response line: -1.48

Prompt line: Input COc1ccc(CNC(=O)[C@@H]2CC=C[C@@H]3CCN(C4CC4)C(=O)[C@@H]32)cc1 , output reported inhibition.
Response line: 4.14

Prompt line: Supply reported inhibition belonging to this compound: O=C1NC[C@@H](Cc2ccc(O)cc2)N(CCc2cccc(F)c2)C1=O
Response line: 6.42
